Data origin: the supplement of paper PMC10307832

# Test system: EPLC-272H
# Assay: relative viability (nuclei count vs DMSO), 5 days (fraction); higher = more cells survive
# Run parameters: first compound 0.3162 µM
We label by threshold. Values of relative viability strictly beneath 0.4 are Yes. Values of 0.4 and up are No.

>>> classification("CC(C)Oc1cc(Nc2nc(N[C@@H](C)c3ccc(F)cn3)ncc2Cl)n[nH]1 [AZ23] + COc1cc2c(Oc3ccc(NC(=O)C4(C(=O)Nc5ccc(F)cc5)CC4)cc3F)ccnc2cc1OCCCN1CCOCC1 [Foretinib] (partner 0.25 µM)")
"No"
>>> classification("CC(C)Oc1cc(Nc2nc(N[C@@H](C)c3ccc(F)cn3)ncc2Cl)n[nH]1 [AZ23] + CCNC(=O)c1noc(-c2cc(C(C)C)c(O)cc2O)c1-c1ccc(CN2CCOCC2)cc1 [Luminespib] (partner 0.01 µM)")
"No"
>>> classification("CC(C)Oc1cc(Nc2nc(N[C@@H](C)c3ccc(F)cn3)ncc2Cl)n[nH]1 [AZ23] + COc1cccc2cc(-c3nc([C@H]4CC[C@H](C(=O)O)CC4)n4ncnc(N)c34)[nH]c12 [OSI-027] (partner 0.5 µM)")
"Yes"
>>> classification("CC(C)Oc1cc(Nc2nc(N[C@@H](C)c3ccc(F)cn3)ncc2Cl)n[nH]1 [AZ23] + O=C(c1cc(Cc2n[nH]c(=O)c3ccccc23)ccc1F)N1CCN(C(=O)C2CC2)CC1 [Olaparib] (partner 8 µM)")
"No"
>>> classification("CC(C)Oc1cc(Nc2nc(N[C@@H](C)c3ccc(F)cn3)ncc2Cl)n[nH]1 [AZ23] + O=C(CCCCCCC(=O)Nc1ccccc1)NO [Vorinostat] (partner 1 µM)")
"No"
>>> classification("CC(C)Oc1cc(Nc2nc(N[C@@H](C)c3ccc(F)cn3)ncc2Cl)n[nH]1 [AZ23] + CC(=O)Nc1cccc(-n2c(=O)n(C3CC3)c(=O)c3c(Nc4ccc(I)cc4F)n(C)c(=O)c(C)c32)c1 [Trametinib] (partner 0.02 µM)")
"Yes"
